experiment: amyloid nucleation score (Sup35N fusion, yeast selection) (log enrichment); library NNK2; higher = more nucleation; inactive = no reads after selection;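 further: zero at mode of non-aggregating sequences after 7 days selection at 30°C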
assayMetric: amyloid nucleation score
One number for each entry.

[
  {
    "sequenceEntry": "DHIVYTLGCWGLRSPFKPLL",
    "assayMetric": "amyloid nucleation score",
    "result": 0.026
  },
  {
    "sequenceEntry": "FANGRFMNPSHGLYSLPLKR",
    "assayMetric": "amyloid nucleation score",
    "result": 0.09
  },
  {
    "sequenceEntry": "LDYRPCEDNDDVDVSEILHG",
    "assayMetric": "amyloid nucleation score",
    "result": 0.224
  }
]

# input Request the reported amyloid nucleation score associated with RRIGFDAPDVSRYVALLYWD
# output -0.106

----------
test: amyloid nucleation score (Sup35N fusion, yeast selection) (log enrichment); library NNK1; higher = more nucleation; inactive = no reads after selection
assayMetric: amyloid nucleation score
Answers are plain numbers.

Use these answered entries as a reference point.
[
  {
    "sequenceEntry": "LFCDPAFGKHLCFRNAFCWF",
    "amyloid nucleation score": 0.255
  },
  {
    "sequenceEntry": "LSLILFVCRIYTYSCSHRAL",
    "amyloid nucleation score": 0
  },
  {
    "sequenceEntry": "RKFAFKSIWSWYRI",
    "amyloid nucleation score": 0.533
  },
  {
    "sequenceEntry": "MVVFDRRGLSYPVS",
    "amyloid nucleation score": 0.556
  },
  {
    "sequenceEntry": "IDLGFLNKCLCRNSCCVGEA",
    "amyloid nucleation score": 1.81
  }
]

Please report amyloid nucleation score for every entry that follows.
1. YYSLAVLTSLRARKSTVFND
2. YYLEGSNALYIKVDRILRLL

# output
1: -1.16; 2: -0.187

----------
experiment: amyloid nucleation score (Sup35N fusion, yeast selection) (log enrichment); library NNK2; higher = more nucleation; inactive = no reads after selection
Please respond with reported amyloid nucleation score for every item in the list.
Answers are plain numbers.

[
  {
    "substance": "DFFVLVGYGKVK",
    "amyloid nucleation score": 0.595
  },
  {
    "substance": "MDTVMRLYVCVCCRSFLRIG",
    "amyloid nucleation score": 1.62
  },
  {
    "substance": "AVSVAVLRHLEVRRKVWS",
    "amyloid nucleation score": 1.66
  },
  {
    "substance": "GAFSYEMTRLKALGFWPL",
    "amyloid nucleation score": 5.87
  },
  {
    "substance": "RVFNLLYVLNWNAKSLSWMS",
    "amyloid nucleation score": 4.32
  },
  {
    "substance": "GWSMCRVSRLTMLVSVVFFC",
    "amyloid nucleation score": 0.377
  }
]

For every listed record, write down its amyloid nucleation score.
1. LAYLSLICFCVDSPTQVGLM
2. LELHGT
3. DWCTAAGDEMDMVVGGKVPN
4. DIIRMGFRPFWQGVCVRLSY

# output
10.1
-1.22
0.427
-0.669

# input Any idea what its amyloid nucleation score is? The substance is LTGLVSLPRCWTIWVPWREG
# output 1.43

----------
experiment: amyloid nucleation score (Sup35N fusion, yeast selection) (log enrichment); library NNK1; higher = more nucleation; inactive = no reads after selection
assayMetric: amyloid nucleation score
Numbers only.

Sample records with amyloid nucleation score:
[
  {
    "substance": "RIMGFRTFEHWIININYLLL",
    "result": -0.094
  },
  {
    "substance": "GITLSIAFLKAYLCRSKGGS",
    "result": 2.62
  },
  {
    "substance": "DFWMSRKYLNVSMQ",
    "result": 3.98
  },
  {
    "substance": "FLGLCS",
    "result": -0.278
  },
  {
    "substance": "YNVSHLIRV",
    "result": -0.959
  },
  {
    "substance": "IDSFCKCDISCVIFSWIVVV",
    "result": 0.024
  },
  {
    "substance": "VVSLGNSSDYCHWKLILPTV",
    "result": 0.151
  },
  {
    "substance": "STKADTSRALVLCRGDC",
    "result": -0.18
  },
  {
    "substance": "YIFENLARAPMLQ",
    "result": 0.259
  },
  {
    "substance": "ISLYVSNYRAYDKSPLGEDW",
    "result": 0.398
  }
]

Items follow; give amyloid nucleation score for each.
1. GYHSMLSLDDQIFVKLHDAK
2. AVCVMWANGLVYMTSLECER
3. TKIKYGDKSPKHYYMAS
4. LIHYNNNVYTRWAWSSQQGE
5. SIRLVLRFLTA
6. APSYRATWRAVNCAILGPLY

# output
[0.135, -0.679, -0.174, 2.75, -0.166, -0.567]

Would you mind listing amyloid nucleation score for each of the following substances?
1. TLCCVWSNSFLRVTHDVYKA
2. DEWCVG

# output
[8.52, 0.017]

Where these numbers come from: the supplement of paper PMC12042874
